- targetOrSystem: recombinant human mPGES-1 (Homo sapiens)
- Construct: made in house; host or cells: Rosetta E. coli (microsomal/membrane fraction)
- Sequence (O14684 1-152): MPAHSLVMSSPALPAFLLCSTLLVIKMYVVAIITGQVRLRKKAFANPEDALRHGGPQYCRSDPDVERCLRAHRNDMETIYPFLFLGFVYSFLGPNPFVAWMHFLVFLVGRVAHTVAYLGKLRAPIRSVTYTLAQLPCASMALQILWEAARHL
- testName: mPGES-1 inhibition test (microsomes, PGH2 substrate, HTRF detection of PGE2)
- Format: biochemical
- statedConditions: inhibition of mPGES-1 at 10 μM
measuredProperty: inhibition at 10 µM (%)
Response body: numeric value in %, unit text excluded.

>  <compound>
NCCn1c(Nc2c(Cl)cccc2Cl)nc2cc(C(=O)Nc3cc(Cl)ccn3)ccc21 [Example 211, (trifluoroacetate)]

>  <inhibition at 10 µM / %>
100

$$$$
>  <compound>
O=C(NC1CCC2(CC1)CC2)c1cc2nc(Nc3c(F)cccc3Cl)[nH]c2cc1F [Example 399]

>  <inhibition at 10 µM / %>
99

$$$$
>  <compound>
O=C(Nc1cc(Cl)ccn1)c1cc(Br)c2[nH]c(Nc3c(Cl)cccc3Cl)nc2c1 [Example 500]

>  <inhibition at 10 µM / %>
100

$$$$

Asked: Requested read-out inhibition at 10 µM, target or system recombinant human mPGES-1 (Homo sapiens), entry O=C(NCc1ccc(Cl)cc1)c1ccc2[nH]c(Nc3c(Cl)cccc3Cl)nc2c1 [Example 309]
Given back: 98

Asked: Tell me reported inhibition at 10 µM for Cn1c(Nc2c(F)cccc2F)nc2cc(C(=O)N[C@H]3CC[C@H](C(F)(F)F)CC3)ccc21 [Example 171] , tested with recombinant human mPGES-1 (Homo sapiens).
Given back: 94

Asked: What measured inhibition at 10 µM is associated with CCOc1cc2c(cc1C(=O)NC1CCC(C(F)(F)F)CC1)nc(Nc1c(Cl)ccc(Cl)c1F)n2C (centres unmarked) [Example 605] on recombinant human mPGES-1 (Homo sapiens)?
Given back: 93

Asked: Request: inhibition at 10 µM, test system recombinant human mPGES-1 (Homo sapiens), entry COc1cc2[nH]c(Nc3c(Cl)cccc3Cl)nc2cc1C(=O)Nc1ccc(Br)cc1 [Example 371]
Given back: 100

Asked: Record CCOc1cc2[nH]c(Nc3c(Cl)ccc(Cl)c3F)nc2cc1C(=O)Nc1ccc(Br)cc1 [Example 604] : what is its inhibition at 10 µM with recombinant human mPGES-1 (Homo sapiens)?
Given back: 100

----------
Let's look at some compounds and their measured inhibition at 1 µM.
- targetOrSystem: recombinant human mPGES-1 (Homo sapiens, UniProt O14684)
- Construct: made in house; host or cells: Rosetta E. coli (microsomal/membrane fraction)
- Sequence (O14684 1-152): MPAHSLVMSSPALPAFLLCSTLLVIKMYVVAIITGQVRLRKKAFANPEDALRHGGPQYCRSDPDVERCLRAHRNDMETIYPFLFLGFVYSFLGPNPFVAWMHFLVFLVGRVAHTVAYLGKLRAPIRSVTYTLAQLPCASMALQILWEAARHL
- testName: mPGES-1 inhibition test (microsomes, PGH2 substrate, HTRF detection of PGE2)
- Format: biochemical
- statedConditions: inhibition of mPGES-1 at 1 μM (marked in cell)
Report only the number, with the unit % understood.

Record excerpt, results attached:
>  <compound>
COc1cc2c(cc1C(=O)N[C@H]1CC[C@H](C(F)(F)F)CC1)nc(Nc1c(Cl)ccc(C)c1F)n2C [Example 647]

>  <inhibition at 1 µM / %>
97

$$$$
>  <compound>
Cc1ccc(Cl)c(Nc2nc3cc(C(=O)NC4CCCCC4)c(F)cc3[nH]2)c1F [Example 649]

>  <inhibition at 1 µM / %>
96

$$$$
>  <compound>
O=C(Nc1cccc(Br)c1)c1ccc2[nH]c(Nc3c(Cl)cccc3Cl)nc2c1 [Example 69]

>  <inhibition at 1 µM / %>
100

$$$$

Asked: // returns reported inhibition at 1 µM for input CC(C)Oc1cc2c(cc1C(=O)NC1CCC(C(F)(F)F)CC1)nc(Nc1c(Cl)ccc(Cl)c1F)n2C (stereo not shown) [Example 644]
Given back: 96

Asked: Can you share its inhibition at 1 µM? I mean this compound: CC(C)Oc1cc2c(cc1C(=O)NC1CCCCC1)nc(Nc1c(Cl)ccc(Cl)c1F)n2C [Example 624]
Given back: 100

Asked: So what's the measured inhibition at 1 µM for this one? COc1cc2c(cc1C(=O)Nc1ccc(Br)cc1)nc(Nc1cc(F)ccc1C(F)(F)F)n2C [Example 642]
Given back: 100

Asked: Using the record for O=C(Nc1ccc(Cl)c(C(F)(F)F)c1)c1ccc2[nH]c(Nc3c(Cl)cccc3Cl)nc2c1 [Example 282] , report its inhibition at 1 µM.
Given back: 100
